# Test Method Notes: NCI Yeast Anticancer Drug Screen. Data for the rad50 strain (AID 155);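 note: 0% = growth of vehicle-only cultures of the same strain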
# Recorded Conditions: S. cerevisiae rad50 strain growth inhibition; at 50.0 µM (retest, dose inferred, filed as 5.0); stronger effect = higher value
Compounds without any hit were thinned out: in the full panel of roughly 79,000, 15% have a hit. Active and inactive are the calls of the source. Cut-off read from the data, not from the text of the source: active = growth inhibition above about 70%; inactive = the rest.
Let's look at some molecules and their measured growth inhibition.

O=c1c2ccccc2ncn1O; 93% (active)
O=C(O)CCCOc1cc(-c2ccccc2F)nc2cc3c(cc12)OCO3; 36% (inactive)
O=C1CSC(=S)N1Cc1cccnc1; 19% (inactive)

Form field growth inhibition, entry COc1ccc2nc3cc([N+](=O)[O-])ccc3c(NNc3ccccc3)c2c1 : -5% (inactive)

Form field growth inhibition, entry N#Cc1ccc(Br)cc1[N+](=O)[O-] : 64% (inactive)

Form field growth inhibition, entry CC(C)(C)S(=O)(=O)O.[Ag] : 99% (active)

Form field growth inhibition, entry Cn1ccc(=Nc2ccc(NC(=O)c3ccc(N=c4ccn(C)c5ccc([N+](=O)[O-])cc45)cc3)cc2)cc1 : 98% (active)

====

# Test Method Notes: NCI Yeast Anticancer Drug Screen. Data for the mec2-1 strain (AID 157)
# Recorded Conditions: S. cerevisiae mec2-1 strain, at 50.0 µM (retest, dose inferred, filed as 5.0)
This is part of a sample that, as a whole, favours compounds with a hit. Of some 79,000 tested, about 15% had one in any assay. Activity calls are given as the source filed them. No stated cut-off is given here; in the data, active means growth inhibition above about 70%; inactive means the rest.
API: response.call in active, inactive

Asked: In this assay, the call recorded for CC1(C)OC2C(COC(c3ccccc3)(c3ccccc3)c3ccccc3)OC(c3c[nH]c4c(N)ncnc34)C2O1 (stereo unspecified) was what?
Given back: active

Asked: In this assay, the call recorded for C/C(=N\NC(=S)N1CC2CCC(CC2)C1)c1ccccn1 was what?
Given back: active

Asked: In this assay, the call recorded for COc1cc(N(CCC#N)CCC#N)ccc1/C(N=Nc1ccc([N+](=O)[O-])cc1)=N/NC(=O)c1cc(Br)ccc1O was what?
Given back: inactive

Asked: In this assay, the call recorded for CCCCC(=O)c1ccc([N+](=O)[O-])o1 was what?
Given back: active

Asked: In this assay, the call recorded for O=[N+]([O-])CC(O)c1ccccc1 (stereo unspecified) was what?
Given back: inactive

Asked: In this assay, the call recorded for CCCCCCCCCCCCCCCCCC[S+](C)CC (stereo unspecified) was what?
Given back: active

Asked: In this assay, the call recorded for O=C1C=CC(O)=CC1=P(c1ccccc1)(c1ccccc1)c1ccccc1 was what?
Given back: inactive

Asked: In this assay, the call recorded for O=C(CBr)c1ccc(OC(=O)c2ccccc2)cc1 was what?
Given back: active

Asked: In this assay, the call recorded for Oc1c(Cl)cc(Cl)cc1C(c1cc(Cl)cc(Cl)c1O)C(Cl)(Cl)Cl was what?
Given back: active

Asked: In this assay, the call recorded for CC(C)(C)c1ccc(CCO)cc1 was what?
Given back: inactive

Asked: In this assay, the call recorded for O=C1C=CC2C3C(=O)N(c4ccccc4)C(=O)C3C1N2Cc1ccccc1 (stereo unspecified) was what?
Given back: inactive

====

# Test Method Notes: NCI Yeast Anticancer Drug Screen. Data for the rad50 strain (AID 155);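 note: 0% = growth of vehicle-only cultures of the same strain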
# Recorded Conditions: S. cerevisiae rad50 strain growth inhibition; at 50.0 µM; stronger effect = higher value
# Procedure: Growth inhibition of yeast strains with defined genetic alterations is measured as a screen for potential anti-cancer activity. Selected strains with alterations in DNA damage repair or cell cycle control were exposed to compounds and growth inhibition was measured relative to vehicle treated controls. The strain used in this assay is rad50
This is part of a sample that, as a whole, favours compounds with a hit. Of some 79,000 tested, about 15% had one in any assay. Activity calls are given as the source filed them. Cut-off read from the data, not from the text of the source: active = growth inhibition above about 70%; inactive = the rest.
Observable: growth inhibition

Completed entries (count: 8):
CC(C)=C1C=C2CC[C@@H]3[C@](C)(CCC[C@@]3(C)C(=O)O)[C@H]2CC1; 88.3% (active)
COc1cc2c(c(OC)c1OC)-c1ccc(NCc3ccccc3)c(=O)cc1[C@@H](NC(C)=O)CC2; 49% (inactive)
CN1CSC(=S)N(Cc2ccccc2)C1; 73.6% (active)
CCOc1ccc(C(CN2CCOCC2)C(C)=O)cc1OC (configuration not stated); 72.5% (active)
Oc1c(Cl)cc(Cl)cc1C(c1cc(Cl)cc(Cl)c1O)C(Cl)(Cl)Cl; 99% (active)
O=C(Cc1ccccc1)C(F)(F)F; -8.45% (inactive)
CCCCCCCCCCCC[S+](C)CC(=O)[O-] (configuration not stated); 23.2% (inactive)
O=C(c1ccccc1)C(O)C(Br)(CBr)c1ccccc1 (configuration not stated); 90.7% (active)

Form field growth inhibition, entry C=C(C(N)=O)C(N)C(=O)O (configuration not stated) : -20.1% (inactive)

Form field growth inhibition, entry Clc1ccc(-n2ncc3c(NCCCN4CCOCC4)ncnc32)cc1 : 56% (inactive)

Form field growth inhibition, entry Cc1cc(C)c(C#N)c(Sc2nc(C)c([N+](=O)[O-])c(C)c2C#N)n1 : 66.7% (inactive)

Form field growth inhibition, entry Cc1cc2cccnc2c2ncccc12 : 99% (active)
